Assay: Kinetic solubility of the compound in PBS buffer at pH 7.4
Format: physicochemical
// classify: if (Kinetic_solubility < 30 µM) yes else no

Query :: In the record for Cc1ccc(-n2c(C)cc(-c3nnc4n3CCCCC4)c2C)cc1 , is Kinetic_solubility less than 30 µM?
Result :: yes

Query :: Say whether its Kinetic_solubility is strictly beneath 30 µM. Entry: Cc1cccc(-n2cnc3cc(C(=O)N4CCCCC4)ccc32)c1
Result :: no

Query :: Please check: Kinetic_solubility for O=C(c1ccc2c(c1)ncn2-c1cccc(C(F)(F)F)c1)N1CCCCC1 , strictly under 30 µM or not?
Result :: no

Query :: Take the molecule O=C(c1ccc2c(c1)ncn2-c1cccc(Cl)c1)N1CCCCC1 and say whether its Kinetic_solubility is less than 30 µM.
Result :: no

Query :: Lab note: confirm whether the reported Kinetic_solubility for this molecule is below 30 µM, equality not counting. molecule: Cc1cc(-c2nnc3n2CCCCC3)c(C)n1-c1ccc(Cl)c(Cl)c1
Result :: no

Query :: Determine if Cc1cc(-c2nnc3n2CCCCC3)c(C)n1-c1cccc(C#N)c1 shows Kinetic_solubility strictly lower than 30 µM.
Result :: no

Query :: Here's an entry: Cc1cc(-c2nnc3n2CCCCC3)c(C)n1-c1cccc(C(F)(F)F)c1 . Is its Kinetic_solubility below 30 µM?
Result :: no

Query :: Strictly below 30 µM: is that where Kinetic_solubility of Cc1cc(-c2nnc3n2CCCCC3)c(C)n1-c1ccccc1 sits?
Result :: no

Query :: Is Kinetic_solubility strictly under 30 µM for the entry COc1ccc(-n2cnc3cc(C(=O)N4CCCCC4)ccc32)cc1 ?
Result :: no

Query :: A record lists Cc1cccc(-n2cnc3cc(C(=O)N4CCCC(C)(C)C4)ccc32)c1 . Is its Kinetic_solubility below 30 µM?
Result :: yes

Query :: Hello, is Kinetic_solubility of the following molecule strictly smaller than 30 µM? Cc1cc(-c2nnc3n2CCCCC3)c(C)n1-c1cccc(Cl)c1
Result :: no
